- Test system: DU-145
- METHOD_NOTES: NCI tumour cell line growth inhibition, 48 h
The source made the active and inactive calls. No stated cut-off is given here; in the data, active = GI50 up to about 1.1 µM and inactive = higher.
Here, each record is paired with measured GI50 data.

Below: 5 molecules and their reported GI50.
CC1C(C)(C)C23CC12C1(OCCO1)C3Br (stereo unspecified): > 100 µM (inactive)
O=C(/C=C/c1ccccc1)CSc1nc2ccc(I)cc2c(=O)n1Cc1ccccc1: 15.2 µM (inactive)
c1ccc(-c2nnn(CCN3CCCCC3)n2)cc1: > 100 µM (inactive)
N=C(N)N/N=C/c1c(Cl)nc2sccn12: 44.4 µM (inactive)
NC1(c2cc3ccccc3s2)CCCCCC1: 17.2 µM (inactive)

Okay, now this molecule:
Read off the recorded GI50 for CC(C)CC(Nc1c(O)ccc2ccccc12)C(=O)O (stereo unspecified)
19.2 µM (inactive)

* * *

Heads up, these molecules all have GI50 values measured for HCT-15.

Below: 2 molecules and their reported GI50.
NC(=S)N/N=C1\CCCC1C(O)(C(F)(F)Cl)C(F)(F)Cl (stereo not drawn): > 10 µM
COCP1(=S)OC(C)CCN1C(C)C (stereo not drawn): > 100 µM

Okay, now this molecule:
Read off the recorded GI50 for "C#CCOC(=O)c1ccccc1OC(C)=O"
> 100 µM

* * *

- Tested on: SNB-75
- METHOD_NOTES: NCI tumour cell line growth inhibition, 48 h
The source made the active and inactive calls. No stated cut-off is given here; in the data, active = GI50 up to about 1.1 µM and inactive = higher. Where a SMILES comes first, the peptide text is derived from it. The star is where a group is joined. Boc = CC(C)(C)OC(=O)*
Here, each record is paired with measured GI50 data.

Below: 5 molecules and their reported GI50.
Cc1ccc(/C=C/c2n[nH]c(N/N=C/c3ccc4c(c3)OCO4)nc2=O)cc1: 15 µM (inactive)
c1ccc(CCCC2Sc3cccc4cccc(c34)S2)cc1: > 100 µM (inactive)
COc1ccc(/N=N/c2c(C)c(C#N)c(=S)n(C3OC(CO)C(O)C(O)C3O)c2C)cc1 (configuration not stated): 83.6 µM (inactive)
Cc1cc2c(cc1C)N1Cc3c(ccc(C)c3C)N(C2)C1.Cc1cc2c(cc1C)N1Cc3cc(C)c(C)cc3N(C2)C1: > 100 µM (inactive)
COc1ccc(/C(=N/NC(N)=O)C2(O)C(=O)Nc3ccc([N+](=O)[O-])cc32)cc1 (configuration not stated): 20.6 µM (inactive)

Read off the recorded GI50 for CNC(=O)CNC(=O)C(NC(=O)CNC(=O)C1CCCN1C(=O)C(C)NC(=O)C(NC(=O)OC(C)(C)C)C(C)C)C(C)C (configuration not stated) (Boc-VAPGVG-NHMe; configuration not given here)
> 100 µM (inactive)

Read off the recorded GI50 for "Cc1ccc2nc(N)[nH]c(=O)c2c1Sc1ccncc1"
> 78.9 µM (inactive)

* * *

- Test system: HOP-92
- METHOD_NOTES: NCI tumour cell line growth inhibition, 48 h
Calls of active or inactive are those of the source. Rule as the data show it: active = GI50 up to about 1.1 µM and inactive = higher.
Choose one outcome from this list and give only that: active, inactive

COc1cccc2c1OC1Sc3ccccc3-c3nn(-c4ccccc4)c-2c31 (stereo not given): inactive
C[Si](C)(C)CN1C(=O)c2ccccc2C1(O)c1ccccc1 (stereo not given): inactive
N#Cc1cccc(N2C(=O)c3ccc(C(=O)c4ccc5c(c4)C(=O)N(c4cccc(C#N)c4)C5=O)cc3C2=O)c1: inactive
CC(C)=CC[C@H]1C[C@]2(CC=C(C)C)C(=O)[C@@](CC=C(C)C)(C(=O)C(C(=O)c3ccccc3)=C2O)C1(C)C [6-EPI-CLUSIANONE]: inactive
C1=N\CCNCC/N=C\c2ccc(cc2)OCc2cccc(n2)COc2ccc/1cc2: inactive
Nc1ncnc2c1ncn2C(=O)NC12CC3CC(CC(C3)C1)C2: inactive
C=C1c2c(cc3c(c2O)c(=O)c2ccccc2n3C)OC1(C)C: inactive
COC(=O)/C=C1\C(=O)N(C(C)=O)c2ccc(Br)cc21: inactive
COc1ccc(/C=C2\CCNC2=O)cc1: inactive
c1ccc(CCCC2Sc3cccc4cccc(c34)S2)cc1: inactive

Name the outcome recorded for COC12COC(=O)C1C(c1ccc3c(c1)OCO3)c1cc3c(cc1O2)OCO3 (stereo not given) in the assay.
inactive

Name the outcome recorded for COC(=O)NN1C(C)=C(C(=O)OC)C2(CCOC2=O)C1(C)O (stereo not given) in the assay.
inactive

Name the outcome recorded for "CSc1c(C#N)c(N)n(-c2ccc(Cl)cc2)c(=O)c1C#N" in the assay.
inactive

Name the outcome recorded for Cn1c(CCC2(C)Cc3ccccc3C(=O)O2)cc2ccccc2c1=O (stereo not given) in the assay.
inactive

Name the outcome recorded for "FC(F)(Sc1ccccc1)c1nc2ccccc2o1" in the assay.
inactive

Name the outcome recorded for "CC(=O)O[C@H]1CC[C@@]2(C)C(=CC[C@@H]3[C@@H]2CC[C@](C)(c2nnc(C)o2)[C@H]3CC#N)C1" in the assay.
inactive

Name the outcome recorded for COc1ccccc1Cc1nc(-c2ccccc2)nn(C2OC(COC(C)=O)C(OC(C)=O)C(OC(C)=O)C2OC(C)=O)c1=S (stereo not given) in the assay.
inactive

Name the outcome recorded for "Sc1nnc(SCc2ccccc2Cl)c2nc[nH]c12" in the assay.
inactive

* * *

- Test system: HL-60
- METHOD_NOTES: NCI tumour cell line growth inhibition, 48 h
Active and inactive are the calls of the source. Rule as the data show it: active = GI50 up to about 1.1 µM and inactive = higher.
ASSAY_ENDPOINT: GI50

Below: 3 compounds and their reported GI50.
CSc1ncnc2c1cnn2CCCCO: > 100 µM (inactive)
c1c2c(cc(-n3nnc4c3CCCCCC4)c1-n1nnc3c1CCCCCC3)CCCCCC2: 3.8 µM (inactive)
COC(=O)CC(CC(=O)C(=O)OC)C(=O)OC (centres undefined): > 100 µM (inactive)

Okay, now this compound:
Read off the recorded GI50 for CC1C(C)(C)C23CC12C1(OCCO1)C3Br (centres undefined)
> 100 µM (inactive)

* * *

- Tested on: NCI-H460
- METHOD_NOTES: NCI tumour cell line growth inhibition, 48 h
Active and inactive are the calls of the source. Cut-off read from the data, not from the text of the source: active = GI50 up to about 1.1 µM and inactive = higher.
ASSAY_ENDPOINT: GI50

Cc1ccc(C(=O)O)c(/C=C2\Cc3cc(C)cc(C)c3C2=O)c1: 49.2 µM (inactive)
CCOC(=O)[C@H]1Nc2ccccc2C2c3ccccc3CC21 (stereo partly drawn): 38.6 µM (inactive)
FC(F)(Sc1ccccc1)c1nc2ccccc2o1: 55.5 µM (inactive)
Cc1ccc(/C=C2\CCS(=O)(=O)c3ccccc3C2=O)cc1: 14.8 µM (inactive)
COc1ccc(-c2c(/C=N/OCC(=O)O)c3sc4ccccc4n3c2/C=N/OCC(=O)O)cc1: > 50 µM (inactive)
COc1ccc(C2C(C#N)=C(S)N(C3OC(CO)C(O)C(O)C3O)C(c3ccccc3)=C2C(C)=O)cc1 (stereo not drawn): 88.1 µM (inactive)
Nc1ncnc2c1ncn2C(=O)NC12CC3CC(CC(C3)C1)C2: > 100 µM (inactive)
COc1cc2c(cc1O)[C@H](C)C(c1ccc(Cl)cc1)O2 (stereo partly drawn): 17.9 µM (inactive)
Cc1cccc(NC(=S)Nc2cccc(Cl)c2)n1: > 100 µM (inactive)
Cc1ccc([N+](=O)[O-])cc1S(=O)(=O)Nc1ccc(C2=NN(S(=O)(=O)c3cc([N+](=O)[O-])ccc3C)C(c3cccs3)C2)cc1 (stereo not drawn): 28.2 µM (inactive)

Read off the recorded GI50 for "CCOC(=O)c1cccc(NC(=O)CI)c1"
1.2 µM (inactive)

Read off the recorded GI50 for Cc1cc2c(c(C#N)c1C)NC(=O)C(CC(=O)O)C2=O (stereo not drawn)
> 100 µM (inactive)

Read off the recorded GI50 for "CSc1csc(-c2ccc(-c3ccc(-c4cc(SC)cs4)s3)s2)c1"
> 100 µM (inactive)

* * *

- System: NCI/ADR-RES
- METHOD_NOTES: NCI tumour cell line growth inhibition, 48 h
Calls of active or inactive are those of the source. No stated cut-off is given here; in the data, active = GI50 up to about 1.1 µM and inactive = higher.
Here, each record is paired with measured GI50 data.

Below: 5 compounds and their reported GI50.
NC1=NCC(CN2CCOCC2)O1 (stereo unspecified): > 100 µM (inactive)
CC1C(C)(C)C23CC12C1(OCCO1)C3Br (stereo unspecified): > 100 µM (inactive)
CC1CC(c2ccccc2)Nc2nc3ccccc3n21 (stereo unspecified): > 100 µM (inactive)
CC1/C=C/C=C/CC/C=C/C=C/C=C/C=C/C(OC2OC(C)C(O)C(N)C2O)CC2OC(CC(O)C(O)CCC(O)CC(O)CC(O)CC(=O)OC(C)C(C)C1O)CC(O)C2C(=O)O (stereo unspecified): 21.3 µM (inactive)
O=c1c(Cl)c(Cl)cnn1-c1ccccc1: 2 µM (inactive)

Okay, now this compound:
Read off the recorded GI50 for "O=C(/C=C/C=C/c1ccccc1)CCc1ccccc1"
68.5 µM (inactive)

* * *

Here, each record is paired with measured GI50 data.
- Tested on: IGROV-1
- METHOD_NOTES: NCI tumour cell line growth inhibition, 48 h
Active and inactive are the calls of the source. No stated cut-off is given here; in the data, active = GI50 up to about 1.1 µM and inactive = higher.

Below: 3 compounds and their reported GI50.
NC1=NCC(CN2CCOCC2)O1 (centres undefined): > 100 µM (inactive)
O=c1nc(NC(c2ccccc2)(c2ccccc2)c2ccccc2)ccn1CCO: > 100 µM (inactive)
O=C(/C=C1\Nc2ccccc2N=C1NC12CC3CC(CC(C3)C1)C2)c1ccc(Br)cc1: > 10 µM (inactive)

Read off the recorded GI50 for "CCOP(=O)(/C=C\n1cc(C)c(=O)[nH]c1=O)OCC"
> 100 µM (inactive)
